experiment: qHTS assay to identify small molecule agonists of the hypoxia (HIF-1) signaling pathway - cell viability counter screen (AID 1224844); details: HRE-bla ME-180 viability, CellTiter-Glo luminescence, 17 h; series mostly up to 76.8 µM; further: nearly all actives have a fitted effect of over 50% in size
Inconclusive results are not listed. Active and inactive are the calls of the source. The call rests on the fitted dose curve.
Outcome codes: true (active), false (inactive)

compound	cat
O=C(NCNC(=O)NC1C(=O)NC(=O)N1CO)NC1C(=O)NC(=O)N1CO (stereo not given)	false
Cc1ccc(N)c(C)c1	false
CCC1(CC)C(=O)NC(=O)NC1=O	false
CCSCc1ccccc1OC(=O)NC	false
O=C(O)C(F)(F)C(F)(F)C(F)(F)C(F)(F)C(F)(F)F	false
C=CC(C)(CCC=C(C)C)OC(=O)c1ccccc1N (stereo not given)	false
CCC(=O)O[C@@H]1C=C2CCC3C(CCC4(C)C3CC[C@@H]4OC(=O)CC)C2CC1 (stereo not given in full)	false
ClCc1ccccc1Cl	false
CCOC(=O)c1cn2nc(OP(=S)(OCC)OCC)cc2nc1C	false
CC(C)c1ccc(NC(=O)N(C)C)cc1	false
O=C([O-])c1ccccn1.O=C([O-])c1ccccn1.O=C([O-])c1ccccn1.[Cr+3]	false
C=CCN1C[C@H](C)N([C@H](c2ccc(C(=O)N(CC)CC)cc2)c2cccc(OC)c2)C[C@H]1C	false
Clc1ccc2ccccc2c1	false
C[C@]12CC[C@H]3[C@@H](CCC4=CC(=O)CC[C@@H]43)[C@@H]1CC[C@@H]2OC(=O)CCc1ccccc1	false
CCCCCl	false
O=C(O)C(O)C(O)C(=O)O (stereo not given)	false
CCCBr	false
Nc1ccccc1C(=O)OCC(O)CO (stereo not given)	false
C#CC(O)(C=CCl)CC (stereo not given)	false
CCCN(CCC)C(=O)Cc1c(-c2ccc(Cl)cc2)nc2ccc(Cl)cn12	false
CC(C)C1(C)N=C(c2ncccc2C(=O)O)NC1=O (stereo not given)	false
CCCCCCCCCCCCN(C)C	false
SCc1ccccc1	false
CC(C)OC(=O)Cc1ccccc1	false
CC(C)[C@@H](C(=O)O[C@@H](C#N)c1cccc(Oc2ccccc2)c1)c1ccc(Cl)cc1	false
NCCc1cc(O)c(O)cc1O	false
CCCC1CCCCN1 (stereo not given)	false
O=C1CC[C@@]2(O)[C@H]3Cc4ccc(O)c5c4[C@@]2(CCN3CC2CC2)[C@H]1O5	false
C[N+](C)(C)CC1CO1 (stereo not given)	false
O=P(OCC(Br)CBr)(OCC(Br)CBr)OCC(Br)CBr (stereo not given)	false
N#CC(C#N)=C(C#N)C#N	false
CC[N+]1(C)CCCC(OC(=O)C(O)(c2ccccc2)c2ccccc2)C1 (stereo not given)	false
CC(Cc1ccccc1)NCc1ccccc1Cl (stereo not given)	false
C=C(Cl)Cl	false
CCCCCCCCCCCCCCCl	false
CCOc1cccc(C2(N3CCN(c4ccccc4)CC3)CCC(C)CC2)c1 (stereo not given)	false
COC(=O)C1(O)c2ccccc2-c2ccccc21	false
COc1ccccc1N1CCNCC1	false
CC(C)(C)N(NC(=O)c1ccc(Cl)cc1)C(=O)c1ccccc1	false
Cc1ccccc1	false
COc1ccc(C(O)(c2cncnc2)C2CC2)cc1 (stereo not given)	false
O=CC=O	false
CN(C1CCCCC1)C1CCCCC1	false
CCC(C)(C)O	false
CCCC[N+](CCCC)(CCCC)CCCC	false
O=C1NC(=O)C(=O)C(=O)N1	false
CC(O)CN1CCN(CC(=O)[O-])CCN(CC(=O)[O-])CCN(CC(=O)[O-])CC1.[Gd+3] (stereo not given)	false
O=C(O)C(F)(F)C(F)(F)C(F)(F)C(F)(F)C(F)(F)C(F)(F)C(F)(F)C(F)(F)F	true
CCCN(CCOc1c(Cl)cc(Cl)cc1Cl)C(=O)n1ccnc1	false
CC(C)(C)c1ccc(CCOc2ncnc3ccccc23)cc1	false
[Cl-].[Cl-].[Hg+2]	true
O=[N+]([O-])c1cc(Cl)c(Cl)cc1Cl	false
CCC1(CCC(C)C)C(=O)NC(=O)NC1=O	false
c1ccc2c(c1)-c1cccc3cccc-2c13	false
O=C(Cl)OCCOCCOC(=O)Cl	false

###

experiment: A CellTox Green Cytotoxicity Assay to monitor cytotoxicity in HepG2 cells - 40 hour (AID 1224879); settings: CellTox Green fluorescence; series mostly up to 76.8 µM; further: nearly all actives have a fitted effect of over 40% in size
Records with an inconclusive call do not appear. Active and inactive are the calls of the source. Calls follow the shape of the dose curve; as a rule, active = well fitted activation curve with a large enough effect in the repeat runs; inconclusive = weak or mixed curves; inactive = flat fitted curve, though single readings scatter.
Labels: TRUE = active, FALSE = inactive

compound	cat
CCNC(=O)NC(=O)/C(C#N)=N/OC	FALSE
C=C(Cl)Cl	FALSE
O=C(O)COc1cc(Cl)c(Cl)cc1Cl	FALSE
O=C(O)C(O)C(O)C(=O)O (configuration not stated)	FALSE
C=CCN1C[C@H](C)N([C@H](c2ccc(C(=O)N(CC)CC)cc2)c2cccc(OC)c2)C[C@H]1C	TRUE
FC(F)OC(F)(F)C(F)Cl (configuration not stated)	FALSE
CC(Oc1cc(Cl)c(Cl)cc1Cl)C(=O)O (configuration not stated)	FALSE

###

test: qHTS RealTime-Glo MT Cell Viability Assay in HEK293 cells - 16 hour (AID 1224872); details: RealTime-Glo luminescence; series mostly up to 76.8 µM; further: nearly all actives have a fitted effect of over 50% in size; further: potency means the concentration at half of the fitted maximal effect
Results filed as inconclusive are left out. Active and inactive are the calls of the source. Calls come from the whole dose curve; as a rule, active = well fitted cell-killing curve with a large enough effect in the repeat runs; inconclusive = weak or mixed curves, or effect the other way; inactive = flat fitted curve, though single readings scatter.
reportedEndpoint: Potency

molecule	testValue
ClCc1ccccc1Cl	inactive
Nc1cc(Cl)cc(C(=O)O)c1Cl	inactive
Cc1nnc(-c2ccccc2)c(=O)n1N	inactive
C[C@]12CC[C@H]3[C@@H](CCC4=CC(=O)CC[C@@H]43)[C@@H]1CC[C@@H]2OC(=O)CCc1ccccc1	inactive
Cc1ccccc1	inactive
CC(C)CCON=O	inactive
O=CC=O	inactive
CCOC(C(=O)OCCN(C)C)(c1ccccc1)c1ccccc1	inactive
CC(C)(C)CC(C)(C)c1ccc(O)cc1	12.3 µM (active)
CCCCCCCCP(=O)(O)O	inactive
CCCCOC(=O)CCC(=O)OCCCC	inactive
CC(C)C1(C)N=C(c2ncccc2C(=O)O)NC1=O (centres undefined)	inactive
CCCC(C)(COC(N)=O)COC(=O)NC(C)C (centres undefined)	inactive
C[C@]12C=CC3=C4CCC(=O)C=C4CC[C@H]3[C@@H]1CC[C@@H]2O	inactive
C=CCSSCC=C	inactive
CCOP(=S)(OCC)Oc1ccc(S(C)=O)cc1 (centres undefined)	inactive
CN(C)N	inactive
CCCCCCCCCCCCN(C)C	inactive
CCCCCCCCCCCCCCCl	inactive
O=C=NC1CCCCC1	inactive
CCCCC#N	inactive
O=C(O)C(O)C(O)C(=O)O (centres undefined)	inactive
CC(C)(c1ccccc1)c1cc(-n2nc3ccccc3n2)c(O)c(C(C)(C)c2ccccc2)c1	inactive
COc1cc(CC(C)N)c(OC)cc1Br (centres undefined)	inactive
O=C(O)c1ccc(=O)[nH]c1	inactive
CC1(C)[C@H](C(=O)O[C@H](C#N)c2cccc(Oc3ccccc3)c2)[C@@H]1C=C(Br)Br	inactive
O=C(NCNC(=O)NC1C(=O)NC(=O)N1CO)NC1C(=O)NC(=O)N1CO (centres undefined)	inactive
COc1ccc2c(c1OC)C(=O)O[C@H]2[C@@H]1c2cc3c(cc2CCN1C)OCO3	inactive
Cc1ncc(C[n+]2csc(CCO)c2C)c(N)n1	inactive

###

test: qHTS assay to identify small molecule agonists of the hypoxia (HIF-1) signaling pathway - cell viability counter screen (AID 1224844); details: HRE-bla ME-180 viability, CellTiter-Glo luminescence, 17 h; series mostly up to 76.8 µM; further: nearly all actives have a fitted effect of over 50% in size
Inconclusive results are not listed. Active and inactive are the calls of the source. Calls follow the shape of the full dose curve.
reportedEndpoint: outcome

substanceSmiles	reportedEndpoint	testValue
CN[C@@H](C)[C@H](O)c1ccccc1	outcome	inactive
NNCCO	outcome	inactive
O=S(=O)(c1ccccc1)c1ccccc1	outcome	inactive

###

test: Caspase-3/7 induction in CHO-K1 cells by small molecules, qHTS cell viability counter screen (AID 1346979); details: CellTiter-Fluor fluorescence, 17 h; series mostly up to 92.4 µM; further: nearly all actives have a fitted effect of over 35% in size
Inconclusive results are not listed. Activity calls are given as the source filed them. Calls follow the shape of the dose curve; as a rule, active = well fitted cell-killing curve with a large enough effect in the repeat runs; inconclusive = weak or mixed curves, or effect the other way; inactive = no such curve, though single readings can be large or run the other way.
Outcomes: active, inactive

molecule	cat
Cc1cccc(C)c1NC1=NCCCS1	inactive
CCCSP(=S)(OCC)Oc1ccc(SC)cc1 (centres undefined)	inactive
CCNC(=O)NC(=O)/C(C#N)=N/OC	inactive
O=C(Cc1ccccc1)OCCc1ccccc1	inactive
Clc1ccc2ccccc2c1	inactive
c1ccc2sc(SNC3CCCCC3)nc2c1	inactive
CCCN(CCOc1c(Cl)cc(Cl)cc1Cl)C(=O)n1ccnc1	active
COc1cc(CC#N)cc(OC)c1OC	inactive
COC(=O)Cc1ccccc1	inactive
CCCN(CCC)C(=O)Cc1c(-c2ccc(Cl)cc2)nc2ccc(Cl)cn12	active
O=C(O)c1cc(Cl)ccc1Cl	inactive
CC(Oc1cccc(Cl)c1)C(=O)O (centres undefined)	inactive
Cc1nc2ccccc2c(=O)n1-c1ccccc1Cl	active
O=S(=O)(Cl)Cl	inactive
CCCCCCCCP(=O)(O)O	inactive
C=CCN1C[C@H](C)N([C@H](c2ccc(C(=O)N(CC)CC)cc2)c2cccc(OC)c2)C[C@H]1C	inactive
CC(C)(C)N(NC(=O)c1ccc(Cl)cc1)C(=O)c1ccccc1	active
CN1C(=O)CN=C(c2ccccc2)c2cc([N+](=O)[O-])ccc21	inactive
CCc1ccccc1N	inactive
CCOP(=S)(OCC)SCSc1cc(Cl)ccc1Cl	inactive
N#CC1(N=NC2(C#N)CCCCC2)CCCCC1	inactive
CCOP(=O)(O)C(N)=O	inactive
NC(=S)c1c(Cl)cccc1Cl	inactive
C=CCc1ccccc1O	inactive
ClCc1ccccc1Cl	inactive
CC(C)(C)c1ccc(CCOc2ncnc3ccccc23)cc1	inactive
CN1CC[C@]23c4c5ccc(O)c4O[C@H]2[C@@H](O)CC[C@H]3[C@H]1C5	inactive
CC(C)(C)NCC(O)c1ccccc1Cl (centres undefined)	inactive
CCCBr	inactive
CC(C)(C)OOC(C)(C)CCC(C)(C)OOC(C)(C)C	inactive
C[C@H]1[C@@H]2Cc3ccc(O)cc3[C@@]1(C)CCN2C	inactive
O=C1CC[C@@]2(O)[C@H]3Cc4ccc(O)c5c4[C@@]2(CCN3CC2CC2)[C@H]1O5	inactive
C1CCNCC1	inactive
NNCCO	inactive
CC(O)CN1CCN(CC(=O)[O-])CCN(CC(=O)[O-])CCN(CC(=O)[O-])CC1.[Gd+3] (centres undefined)	inactive
O=C(N[C@H]1CN2CCC1CC2)c1ccc2c(c1)OCCO2	inactive
C#C[C@]1(O)CC[C@H]2[C@@H]3CCC4=CC(=O)CCC4=C3C=C[C@@]21CC	active
CCCCCCCCCCCCCCCl	inactive
COC(=O)C1(O)c2ccccc2-c2ccccc21	inactive

Provenance of the data: PubChem BioAssay (Tox21)
